target or test system: 5'-lipoxygenase (Mus musculus)
Construct: Cf1 male mouse hepatic 10% homogenates; from tissue; host or cells: CF1 male mouse liver, 10% homogenate
Sequence (P48999 1-674): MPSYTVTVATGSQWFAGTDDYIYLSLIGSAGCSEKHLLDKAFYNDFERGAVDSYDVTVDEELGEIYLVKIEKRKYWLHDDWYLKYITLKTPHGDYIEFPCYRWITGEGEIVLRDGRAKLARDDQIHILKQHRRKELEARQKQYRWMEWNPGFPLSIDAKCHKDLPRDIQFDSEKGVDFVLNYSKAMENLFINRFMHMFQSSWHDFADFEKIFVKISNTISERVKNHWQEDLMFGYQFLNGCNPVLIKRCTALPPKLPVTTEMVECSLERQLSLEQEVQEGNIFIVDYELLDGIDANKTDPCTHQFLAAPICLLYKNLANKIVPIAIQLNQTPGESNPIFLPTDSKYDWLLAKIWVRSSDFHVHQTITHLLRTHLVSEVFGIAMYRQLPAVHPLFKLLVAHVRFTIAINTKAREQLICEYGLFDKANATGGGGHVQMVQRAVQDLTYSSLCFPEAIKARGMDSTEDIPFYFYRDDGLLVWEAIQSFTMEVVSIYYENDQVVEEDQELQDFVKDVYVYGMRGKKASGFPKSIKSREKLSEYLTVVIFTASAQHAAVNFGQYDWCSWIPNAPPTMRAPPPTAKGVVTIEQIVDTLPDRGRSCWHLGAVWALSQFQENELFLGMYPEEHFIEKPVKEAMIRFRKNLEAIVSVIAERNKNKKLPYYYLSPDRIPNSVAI
run description: Mouse hepatic 5'-lipoxygenase activity
Assay type: biochemical
Description: 1. Cf1 male mouse hepatic 10% homogenates in 0.25M sucrose+0.001MEDTA,pH 7.2. 5'-lipoxygenase Mylari, B.L., et al, J. Med.
pIC50: −log10 of the molar value.
outcome measure: pIC50

1) C[NH+](C)[BH2-]C#N :: 4.64

----------
Tested on: Acid phosphatase
run description: Human osteoporosis fibroblasts acid phosphatase activity
Format: cell-based
experimental conditions: read-out: Acid Phosphatase IC50; Table X; human osteoporosis fibroblasts
pIC50: −log10 of the molar value.
Quick reference: pIC50 of the listed items.
outcome measure: pIC50

1. C[NH+](C)[BH2-]C#N :: 5.06
2. C[N+](C)(C)[BH2-]C#N :: 4.80
3. [BH3-][NH+]1CCOCC1 :: 4.99
4. O=C(O)[BH2-][n+]1ccccc1 :: 4.74

----------
System: Aryl sulphatase
run description: Mouse macrophage aryl sulphatase activity
Assay type: cell-based
experimental conditions: read-out: Aryl Sulphatase IC50; Table VII; mouse macrophage cultured cells, 60 min incubation
pIC50: −log10 of the molar value.
outcome measure: pIC50

1. C[B-](C#N)(C#N)[N+](C)(C)C :: 5.07
2. C[NH+](C)[BH2-]C#N :: 5.05
3. C[N+](C)(C)[BH2-]C#N :: 5.03

----------
target or test system: Cathepsin D (Mus musculus, UniProt P18242)
Construct: azocasein assay pH 5.0
Sequence (P18242 65-410): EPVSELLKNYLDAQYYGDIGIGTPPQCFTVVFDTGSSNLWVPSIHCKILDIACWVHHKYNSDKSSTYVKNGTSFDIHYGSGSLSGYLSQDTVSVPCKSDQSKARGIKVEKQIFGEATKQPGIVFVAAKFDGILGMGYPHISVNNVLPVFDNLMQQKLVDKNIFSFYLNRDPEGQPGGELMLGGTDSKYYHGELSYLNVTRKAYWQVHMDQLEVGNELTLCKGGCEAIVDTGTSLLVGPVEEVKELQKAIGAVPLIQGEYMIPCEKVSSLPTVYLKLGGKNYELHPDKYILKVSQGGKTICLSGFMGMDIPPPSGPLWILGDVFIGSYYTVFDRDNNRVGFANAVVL
run description: Mouse hepatic lysosomal cathepsin D activity
Assay type: biochemical
experimental conditions: Table XV; mouse hepatic, 60 min incubation; read-out: Cathepsin D IC50
Structures can show the parent of a compound that is named as a salt.
We label by threshold. Values of IC50 strictly beneath 7 µM are Y. Values of 7 µM and up are N.

1. C[N+](C)(C)[BH2-]C(=O)[O-].C[N+](C)(C)[BH2-]C(=O)[O-].C[N+](C)(C)[BH2-]C(=O)[O-].C[N+](C)(C)[BH2-]C(=O)[O-].C[N+](C)(C)[BH2-]C(=O)[O-].C[N+](C)(C)[BH2-]C(=O)[O-].O.O.O.[Cl-].[Fe+3].[Fe+3].[Fe+3].[O-2] :: N
2. C[N+](C)(C)[BH2-]C(=O)O [Compound 22, sodium salt] :: Y
3. C[N+](C)(C)[BH2-]C(=O)[O-].C[N+](C)(C)[BH2-]C(=O)[O-].NCCN.NCCN.[Cl-].[Co+3] :: N
4. C[NH+](C)[BH2-]C(=O)O [Compound 23, Dimethylamine-carboxyborane, sodium salt] :: N
5. CC#N.CO.C[N+](C)(C)[BH2-]C(=O)[O-].C[N+](C)(C)[BH2-]C(=O)[O-].C[N+](C)(C)[BH2-]C(=O)[O-].C[N+](C)(C)[BH2-]C(=O)[O-].C[N+](C)(C)[BH2-]C(=O)[O-].C[N+](C)(C)[BH2-]C(=O)[O-].O.O=[N+]([O-])[O-].[Cr+3].[Cr+3].[Cr+3].[O-2] :: Y
6. BC(=O)O :: Y
7. CC(C)=O.C[N+](C)(C)[BH2-]C(=O)[O-].O=[N+]([O-])[O-].[Ca+2] :: Y

----------
target or test system: Aryl sulphatase
run description: Mouse hepatic lysosomal aryl sulphatase activity
Assay type: biochemical
experimental conditions: Table XV, 60 min incubation
Where a name gives a salt, the structure may show the parent alone.
We label by threshold. Values of IC50 strictly beneath 5 µM are True. Values of 5 µM and up are False.

1. CC#N.CO.C[N+](C)(C)[BH2-]C(=O)[O-].C[N+](C)(C)[BH2-]C(=O)[O-].C[N+](C)(C)[BH2-]C(=O)[O-].C[N+](C)(C)[BH2-]C(=O)[O-].C[N+](C)(C)[BH2-]C(=O)[O-].C[N+](C)(C)[BH2-]C(=O)[O-].O.O=[N+]([O-])[O-].[Cr+3].[Cr+3].[Cr+3].[O-2] :: False
2. CC(C)=O.C[N+](C)(C)[BH2-]C(=O)[O-].O=[N+]([O-])[O-].[Ca+2] :: True
3. C[N+](C)(C)[BH2-]C(=O)[O-].C[N+](C)(C)[BH2-]C(=O)[O-].NCCN.NCCN.[Cl-].[Co+3] :: False
4. C[N+](C)(C)[BH2-]C(=O)[O-].C[N+](C)(C)[BH2-]C(=O)[O-].C[N+](C)(C)[BH2-]C(=O)[O-].C[N+](C)(C)[BH2-]C(=O)[O-].C[N+](C)(C)[BH2-]C(=O)[O-].C[N+](C)(C)[BH2-]C(=O)[O-].O.O.O.[Cl-].[Fe+3].[Fe+3].[Fe+3].[O-2] :: True
5. C[NH+](C)[BH2-]C(=O)O [Compound 23, Dimethylamine-carboxyborane, sodium salt] :: True
6. C[N+](C)(C)[BH2-]C(=O)O [Compound 22, sodium salt] :: False
7. CC#N.CO.CO.CO.C[N+](C)(C)[BH2-]C(=O)[O-].C[N+](C)(C)[BH2-]C(=O)[O-].C[N+](C)(C)[BH2-]C(=O)[O-].C[N+](C)(C)[BH2-]C(=O)[O-].C[N+](C)(C)[BH2-]C(=O)[O-].C[N+](C)(C)[BH2-]C(=O)[O-].O=[N+]([O-])[O-].[Fe+3].[Fe+3].[Fe+3].[O-2] :: True
8. BC(=O)O :: True

----------
target or test system: Pg. cyclooxygenase (Sus scrofa, UniProt A0A287ANF9)
Construct: Porcine Seminal; from tissue; the methods section prints beef seminal vesicle
Sequence (A0A287ANF9 25-600): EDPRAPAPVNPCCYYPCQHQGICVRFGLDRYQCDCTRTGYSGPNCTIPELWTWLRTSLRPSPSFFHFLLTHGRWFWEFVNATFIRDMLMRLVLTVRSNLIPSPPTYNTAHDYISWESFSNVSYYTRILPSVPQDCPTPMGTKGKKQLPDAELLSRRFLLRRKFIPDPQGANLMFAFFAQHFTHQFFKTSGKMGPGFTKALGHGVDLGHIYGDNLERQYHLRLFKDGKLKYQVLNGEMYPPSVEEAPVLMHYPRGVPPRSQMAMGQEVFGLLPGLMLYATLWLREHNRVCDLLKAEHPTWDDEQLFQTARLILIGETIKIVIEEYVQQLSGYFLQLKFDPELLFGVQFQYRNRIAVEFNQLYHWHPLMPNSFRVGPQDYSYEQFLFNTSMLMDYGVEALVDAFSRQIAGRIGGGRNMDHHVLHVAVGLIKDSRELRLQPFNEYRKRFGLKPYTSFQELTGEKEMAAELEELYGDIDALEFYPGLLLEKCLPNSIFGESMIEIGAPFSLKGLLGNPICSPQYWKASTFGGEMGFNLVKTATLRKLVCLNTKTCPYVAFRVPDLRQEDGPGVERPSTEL
run description: Porcine seminal vesicles Pg. cyclooxygenase
Format: biochemical
experimental conditions: Table XVI; 60 min incubation
Quick reference: IC50 of the listed items.
outcome measure: IC50 (nM)

1. C[N+](C)(C)[BH2-]C(=O)[O-].C[N+](C)(C)[BH2-]C(=O)[O-].C[N+](C)(C)[BH2-]C(=O)[O-].C[N+](C)(C)[BH2-]C(=O)[O-].C[N+](C)(C)[BH2-]C(=O)[O-].C[N+](C)(C)[BH2-]C(=O)[O-].O.O.O.[Cl-].[Fe+3].[Fe+3].[Fe+3].[O-2] :: 4170
2. CC(C)=O.C[N+](C)(C)[BH2-]C(=O)[O-].O=[N+]([O-])[O-].[Ca+2] :: 2570
3. C[N+](C)(C)[BH2-]C(=O)[O-].C[N+](C)(C)[BH2-]C(=O)[O-].NCCN.NCCN.[Cl-].[Co+3] :: 4010
4. CC#N.CO.C[N+](C)(C)[BH2-]C(=O)[O-].C[N+](C)(C)[BH2-]C(=O)[O-].C[N+](C)(C)[BH2-]C(=O)[O-].C[N+](C)(C)[BH2-]C(=O)[O-].C[N+](C)(C)[BH2-]C(=O)[O-].C[N+](C)(C)[BH2-]C(=O)[O-].O.O=[N+]([O-])[O-].[Cr+3].[Cr+3].[Cr+3].[O-2] :: 2140
5. CC#N.CO.CO.CO.C[N+](C)(C)[BH2-]C(=O)[O-].C[N+](C)(C)[BH2-]C(=O)[O-].C[N+](C)(C)[BH2-]C(=O)[O-].C[N+](C)(C)[BH2-]C(=O)[O-].C[N+](C)(C)[BH2-]C(=O)[O-].C[N+](C)(C)[BH2-]C(=O)[O-].O=[N+]([O-])[O-].[Fe+3].[Fe+3].[Fe+3].[O-2] :: 2900
